- Experimental target: human CD33 P19D (human, UniProt P20138 18-364)
- Sequence (P20138 18-364 P19D limits assumed): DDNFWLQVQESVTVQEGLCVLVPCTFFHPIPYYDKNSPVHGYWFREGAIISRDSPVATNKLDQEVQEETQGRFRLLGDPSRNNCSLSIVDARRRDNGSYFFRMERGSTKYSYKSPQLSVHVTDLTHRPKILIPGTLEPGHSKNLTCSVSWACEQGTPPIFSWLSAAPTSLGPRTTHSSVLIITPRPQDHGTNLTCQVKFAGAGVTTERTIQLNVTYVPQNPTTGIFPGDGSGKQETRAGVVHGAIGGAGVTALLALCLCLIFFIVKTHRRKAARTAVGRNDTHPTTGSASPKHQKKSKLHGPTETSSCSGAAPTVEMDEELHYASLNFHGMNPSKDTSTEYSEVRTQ
- Protocol text: flow cytometry, mutant on cells, IgG
Reported Mean % WT Binding by item:
Field format: number, assumed % WT binding, no unit text.

Refmab #4 (antibody, human IgG1, V domains shown, Tested in IgG format; human IgG1 Fc silent (PG-LALA)) VH: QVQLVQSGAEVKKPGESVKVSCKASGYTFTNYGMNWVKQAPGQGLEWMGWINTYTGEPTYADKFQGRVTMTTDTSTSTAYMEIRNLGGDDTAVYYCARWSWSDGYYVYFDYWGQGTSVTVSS VL: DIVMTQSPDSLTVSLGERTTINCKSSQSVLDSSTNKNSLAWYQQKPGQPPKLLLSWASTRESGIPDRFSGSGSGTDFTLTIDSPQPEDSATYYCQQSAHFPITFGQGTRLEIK	94.8
Refmab #1 (antibody, human IgG1, V domains shown, Tested in IgG format; human IgG1 (Absolute Antibody hP67.6, Cat. No. Ab00283-10.0); also called hP67.6) VH: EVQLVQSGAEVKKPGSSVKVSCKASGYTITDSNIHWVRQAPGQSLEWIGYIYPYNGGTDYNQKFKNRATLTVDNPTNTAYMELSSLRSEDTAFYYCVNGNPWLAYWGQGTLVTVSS VL: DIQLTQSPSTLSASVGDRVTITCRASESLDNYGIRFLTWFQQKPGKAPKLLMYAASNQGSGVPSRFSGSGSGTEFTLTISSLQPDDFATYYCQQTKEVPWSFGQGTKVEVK	2.6
Refmab #3 (antibody, human IgG1, V domains shown, Tested in IgG format; human IgG1 Fc silent (PG-LALA)) VH: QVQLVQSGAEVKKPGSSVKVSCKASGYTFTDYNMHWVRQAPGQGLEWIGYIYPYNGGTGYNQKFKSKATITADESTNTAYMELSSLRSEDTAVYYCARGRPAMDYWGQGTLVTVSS VL: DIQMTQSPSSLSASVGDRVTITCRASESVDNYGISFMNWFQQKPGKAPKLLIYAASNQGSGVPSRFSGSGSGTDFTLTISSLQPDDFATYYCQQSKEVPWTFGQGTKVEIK	0.6

Turning now to a further record.
Form field Mean % WT Binding, entry Refmab #2 (antibody, human IgG1, V domains shown, Tested in IgG format; human IgG1 Fc silent (PG-LALA)) VH: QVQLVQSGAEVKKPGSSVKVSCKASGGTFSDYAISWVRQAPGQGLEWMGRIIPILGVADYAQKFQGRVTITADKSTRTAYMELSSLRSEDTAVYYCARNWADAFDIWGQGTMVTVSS VL: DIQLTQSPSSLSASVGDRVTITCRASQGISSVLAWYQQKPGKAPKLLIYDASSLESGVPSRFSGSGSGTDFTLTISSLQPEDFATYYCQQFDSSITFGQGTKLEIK : 99.3
